# Tested on: SNB-19 CNS
# Protocol notes: NCI tumour cell line growth inhibition, 48 h
Decision: TGI >= 20 µM yields condition met, all other cases yield condition not met.

Compound: N#CC(C(=O)CCC(=O)Nc1cccc(Cl)c1)c1ccccc1 (stereo not given)
Classification: condition met

Compound: COC(=O)C1=CSC2(S1)C(C(=O)OC)=CSc1c2ssc1=Nc1ccccc1 (stereo not given)
Classification: condition not met

Compound: C=CC(=O)Nc1cccc(C)c1Nc1cc(-c2cccnc2Cc2c(C)c(OC)cc(OC)c2C)ncn1
Classification: condition met

Does Cc1ccccc1N=Nc1ccc(N=Nc2c(O)ccc3ccccc23)c(C)c1 have a reported TGI of at least 20 µM?
condition met

Kindly determine if TGI recorded for C=CC(=O)N1CCN(c2ccc3cccc(NC(=O)c4cnc(C)cn4)c3n2)CC1 is above or exactly 20 µM.
condition met

Reported TGI at or above 20 µM? C/C=C/[P+](c1ccccc1)(c1ccccc1)c1ccccc1
condition not met

Check the entry C[Si](C)(C)OC1(C#N)C2C3CC4C2C(=O)C2C4C3C21 (stereo not given) : does TGI equal or exceed 20 µM?
condition met

Check the entry CCCCCCCCCCCC(=O)OCCOCCOCCOCCOCCOCc1ccc(OC)cc1 : does TGI equal or exceed 20 µM?
condition met

Reported TGI at or above 20 µM? CCOc1ccc2nc(NC(=O)c3c/c(=N\NC(=O)C[N+](C)(C)C)c4ccc(O)cc4o3)sc2c1
condition not met

----------
# System: IGROV1 ovarian
# Protocol notes: NCI tumour cell line growth inhibition, 48 h
Value type: TGI

Sample answers from the record:
Compound: CN1CCCCC1CCN1CCCCC1 (centres undefined)
TGI: > 100 µM
//
Compound: O=[N+]([O-])c1cccc(-c2nc3sccn3c2-c2ccnc(NCCCNS(=O)(=O)c3cccc(F)c3)n2)c1
TGI: 11.6 µM
//
Compound: CC(C)CC(CC1=CCC2CC1C2(C)C)C1=C(O)C(C)(C)C(=O)C(C)(C)C1=O (centres undefined)
TGI: > 100 µM

// returns reported TGI for input COc1ccc([C@@H]2ON(C)[C@H]3CN(C)C(=O)[C@@H]23)cc1
> 100 µM

----------
# System: UO-31 renal
# Protocol notes: NCI tumour cell line growth inhibition, 48 h; in the data active = GI50 below about 0.43 µM; inactive = the rest
Outcomes you can answer with include only these: 1 for active, 0 for inactive

// known answers, use as guide
Compound: COc1ccc(-c2cc(-c3ccccc3)nc(SCCCC(=O)NO)n2)cc1
Assayed system: UO-31 renal
Classification: 1

Compound: CN(C)CCCN1c2ccccc2CCc2ccc(Cl)cc21
Assayed system: UO-31 renal
Classification: 0

// next entry
I would be grateful if you could indicate the recorded call for CC(CN1CCN(CCOCCO)CC1)CN1c2ccccc2Sc2ccc(Cl)cc21 (stereo not drawn) .
0

----------
# System: OVCAR-4 ovarian
# Protocol notes: NCI tumour cell line growth inhibition, 48 h
Value type: TGI

// solved cases for TGI follow
Compound: COC(=O)[C@@H]1CN(C(=O)CCc2ccccc2)C(=O)N1C(=O)OCc1ccccc1
Reported result: > 100 µM
//
Compound: COc1cc(OC)c(OC)cc1/C=N/N=C(\N)NO
Reported result: > 100 µM
//
Compound: Cc1cc(NCc2cc(Nc3ccnc4cc(Cl)ccc34)ccc2F)nc(N2CCCC2)n1
Reported result: 4.54 µM
//
Compound: CN(C)c1nc(=Nc2ccc3ccccc3c2)ss1
Reported result: > 100 µM
//
Compound: CCC(NC(C)c1ccccc1)C(O)c1ccc(OCc2ccccc2)c(OCc2ccccc2)c1 (configuration not stated)
Reported result: 33.5 µM

I need TGI for every entry listed below, if you could help.
1. NC(=O)CCCC(NCc1c2ccccc2nc2ccccc12)C(=O)O (configuration not stated)
2. COc1nc(N)c(NC2OC(CO)C(O)C2O)c(=O)[nH]1 (configuration not stated)

1. 41.7 µM
2. > 100 µM
